system: HDAC2 (Homo sapiens)
Sequence (Q92769 whole entry): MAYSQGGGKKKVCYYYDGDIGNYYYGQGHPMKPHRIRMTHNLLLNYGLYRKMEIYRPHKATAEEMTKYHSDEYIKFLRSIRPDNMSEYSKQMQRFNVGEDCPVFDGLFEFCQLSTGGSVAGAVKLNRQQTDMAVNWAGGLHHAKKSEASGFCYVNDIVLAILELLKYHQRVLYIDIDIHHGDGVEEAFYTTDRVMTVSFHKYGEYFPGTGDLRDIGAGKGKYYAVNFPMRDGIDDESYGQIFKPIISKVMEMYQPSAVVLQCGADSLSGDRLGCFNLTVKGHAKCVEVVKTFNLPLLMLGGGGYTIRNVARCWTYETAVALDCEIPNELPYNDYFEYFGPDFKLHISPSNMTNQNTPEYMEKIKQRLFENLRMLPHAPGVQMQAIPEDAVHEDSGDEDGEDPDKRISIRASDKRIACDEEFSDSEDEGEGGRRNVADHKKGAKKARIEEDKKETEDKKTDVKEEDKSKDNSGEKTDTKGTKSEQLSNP
test.protocol: HDAC inhibition assay (Caliper EZ reader, FAM-labeled peptide substrate)
condition.details: recombinant human HDAC, 60 min at room temperature, 2 μM substrate
quantity: IC50 (nM)

[
  {
    "compound": "CN(Cc1ccc(/C=C/C(=O)Nc2ccccc2N)cc1)CC12CC3CC(CC(C3)C1)C2 [drawing 61]",
    "result": 602
  }
]

P. O=C(/C=C/c1ccc(CN(CCF)CC23CC4CC(CC(C4)C2)C3)cc1)NO
Q. O=C(/C=C/c1ccc(CNCC23CC4CC(CC(C4)C2)C3)c(F)c1)NO
**Q:** Form: Entry with minimum IC50 (choose one): P / Q Identify your selection by its label.
**A:** Q

Source of measurements: patent US20170349540A1
